# target entity: Cellular tumor antigen p53 (Homo sapiens) (UniProt P04637)
# Sequence (P04637 whole entry, looked up): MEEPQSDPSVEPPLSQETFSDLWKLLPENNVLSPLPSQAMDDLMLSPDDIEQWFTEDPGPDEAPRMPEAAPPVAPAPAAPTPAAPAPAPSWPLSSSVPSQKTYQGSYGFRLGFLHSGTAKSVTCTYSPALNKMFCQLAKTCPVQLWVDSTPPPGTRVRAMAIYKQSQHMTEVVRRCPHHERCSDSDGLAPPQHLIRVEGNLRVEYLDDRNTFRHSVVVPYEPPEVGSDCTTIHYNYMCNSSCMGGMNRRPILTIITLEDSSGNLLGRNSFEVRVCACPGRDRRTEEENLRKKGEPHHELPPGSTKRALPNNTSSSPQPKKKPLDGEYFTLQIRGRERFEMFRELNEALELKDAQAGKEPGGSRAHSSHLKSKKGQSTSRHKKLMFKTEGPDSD
# assay: Primary qHTS for small molecule compounds that upregulate eGFP-tagged delta133p53alpha (in N-terminal) cells. (AID 2060322);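 note: cells pre-induced with doxycycline then dosed without doxycycline; series mostly up to about 56 µM; 0% = DMSO vehicle and 100% = reference activator; nearly all actives have a fitted effect of over 75% in size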
# measurement conditions: NCI-H358 eGFP-delta133p53alpha fluorescence, 24 h; active compounds read high
# Text: Assay Development and Screening Technology National Center for Advancing Translational Sciences (NCATS), National Institute of Health (NIH), Rockville, Maryland Cellular senescence (CS) is one of the hallmarks of aging and age-related diseases. […] Here we report the development and validation of a cell-based quantitative high throughput screening (qHTS) assay in 1,536-well format. […]
Records with an inconclusive call do not appear. Non-standard residues stand in square brackets, D forms with d. Residues, ends and D or L forms follow the SMILES beside them. *: point of attachment. Sta = CC(C)C[C@H](N)[C@@H](O)CC(=O)O; Isovaleryl = CC(C)CC(=O)*
Assignment: determine reported activation for the given compounds.
Report only the number, with the unit % understood.

GET /value?item= C[C@H](Cc1ccc(O)c(O)c1)[C@@H](C)Cc1ccc(O)c(O)c1 &field=activation returns 8.19

GET /value?item= OCCc1ccc(O[C@@H]2O[C@H](CO)[C@@H](O)[C@H](O)[C@H]2O)c(O)c1 &field=activation returns 8.93

GET /value?item= CO[C@@H](C(=O)N1Cc2[nH]nc(NC(=O)c3ccc(N4CCN(C)CC4)cc3)c2C1)c1ccccc1 &field=activation returns 20.9

GET /value?item= C[C@]12CC[C@@H]3c4ccc(O)cc4CC[C@H]3[C@@H]1CC[C@@H]2O &field=activation returns 63.8

GET /value?item= CC(CCC1(O)OC2CC3C4CC=C5CC(O[C@@H]6O[C@H](CO)[C@@H](O[C@@H]7O[C@H](CO)[C@@H](O)[C@H](O)[C@H]7O)[C@H](O)[C@H]6O[C@@H]6O[C@@H](C)[C@H](O)[C@@H](O)[C@H]6O)CCC5(C)C4CCC3(C)C2C1C)CO[C@@H]1O[C@H](CO)[C@@H](O)[C@H](O)[C@H]1O (stereo partly specified) &field=activation returns 12.5

GET /value?item= O=C(O)/C=C/c1ccc2occc2c1O[C@@H]1O[C@H](CO)[C@@H](O)[C@H](O)[C@H]1O &field=activation returns 8.4

GET /value?item= C=C1CCC[C@]2(C)CC[C@@H](C(=C)C(=O)O)[C@H](O)[C@@H]12 &field=activation returns -7.63

GET /value?item= CN(C)CCOc1ccc(-c2nc(-c3ccc4c(c3)CCC4=NO)c(-c3ccncc3)[nH]2)cc1 &field=activation returns -18.7

GET /value?item= CC(CC12CCCN1C(=O)C1CCCN1C2=O)OC(N)=O (stereo unspecified) &field=activation returns -18.3

GET /value?item= CC(C)CC1(C(=O)OCc2ccc(O[C@@H]3O[C@H](CO)[C@@H](O)[C@H](O)[C@H]3O)cc2)CC(=O)OC(C(=O)O)CC(=O)OCC2OC(O1)C(OC(=O)/C=C/c1ccc(O)cc1)C(O)C2O (stereo partly specified) &field=activation returns 3.05

GET /value?item= CC(C)CC(=O)N[C@H](C(=O)N[C@H](C(=O)N[C@@H](CC(C)C)[C@@H](O)CC(=O)N[C@@H](C)C(=O)N[C@@H](CC(C)C)[C@@H](O)CC(=O)O)C(C)C)C(C)C (Isovaleryl-VV[Sta]A[Sta]-OH) &field=activation returns -1.4
